assay: Cytotoxicity against MDCK cells assessed as reduction of cell viability; type: cell-based, Canis lupus familiaris; conditions: dog
ASSAY ENDPOINT: CC50

compound=C=CC(=O)Oc1ccc2c(c1)[C@@]1(C)CCC[C@](C)(C(=O)NC)[C@@H]1CC2 assay_endpoint=CC50 reading="> 40 µM"
compound=C=CC(=O)Oc1ccc2c(c1)[C@@]1(C)CCC[C@](C)(C(=O)OC)[C@@H]1CC2 assay_endpoint=CC50 reading="> 40 µM"
compound="COC(=O)[C@@]1(C)CCC[C@]2(C)c3cc(OC(=O)C(C)F)ccc3CC[C@@H]12 (stereo not given in full)" assay_endpoint=CC50 reading="> 40 µM"
compound=COC(=O)[C@@]1(C)CCC[C@]2(C)c3cc(OC)ccc3CC[C@@H]12 assay_endpoint=CC50 reading="> 40 µM"
compound="CC(C)c1c(O)ccc2c1CC[C@H]1C(C)(C)CCC[C@]21C [TOTAROL]" assay_endpoint=CC50 reading="21 µM"

----------
assay: Metabolic stability in human plasma assessed as compound remaining at 1 uM after 2 hrs by reverse phase HPLC analysis; assay type: ADME, cell-free; details: read-out: Stability
ASSAY ENDPOINT: remaining at 2 h, 1 µM (%)

smiles_input=COC(=O)[C@@]1(C)CCC[C@]2(C)c3cc(O)ccc3CC[C@@H]12 reading=86

----------
experiment: Metabolic stability in human plasma assessed as compound remaining at 1 uM after 10 mins by reverse phase HPLC analysis; assay type: ADME, cell-free; details: read-out: Stability
ASSAY ENDPOINT: remaining at 10 min, 1 µM

smiles_input=COC(=O)[C@@]1(C)CCC[C@]2(C)c3cc(OC(C)=O)ccc3CC[C@@H]12 assay_endpoint="remaining at 10 min, 1 µM" reading=30%
